test: Steady-state plasma pharmacokinetics of intravenous polymyxin B in critically ill patients (non-compartmental analysis); format: in vivo, human; conditions: human, iv, all patients (n = 23), per total body weight, iv, steady state, non-compartmental, mean ± SD, SD, read-out: Clearance per TBW (converted)
Where a SMILES comes first, the peptide text is derived from it. Bridges are numbered along the chain shown (N, C = ends). [ ]: non-standard residue; d: D form. The star is where a group is joined. X1 = CC[C@H](C)CCCCC(=O)*; Dab = NCC[C@H](N)C(=O)O
reported.metric: clearance (mL/min/kg)

* CC[C@H](C)CCCCC(=O)N[C@@H](CCN)C(=O)N[C@H](C(=O)N[C@@H](CCN)C(=O)N[C@H]1CCNC(=O)[C@H]([C@@H](C)O)NC(=O)[C@H](CCN)NC(=O)[C@H](CCN)NC(=O)[C@H](CC(C)C)NC(=O)[C@@H](Cc2ccccc2)NC(=O)[C@H](CCN)NC1=O)[C@@H](C)O [polymyxin B] (X1-[Dab]T[Dab][Dab][Dab][dF]L[Dab][Dab]T; lactam 4-C) | 0.6

* * *

assay: Steady-state plasma pharmacokinetics of intravenous polymyxin B in critically ill patients (non-compartmental analysis); type: in vivo, human; conditions: human, iv, elderly group ≥65 years (n = 17), iv, steady state, non-compartmental, mean ± SD, SD, read-out: Half-time time (converted)
Where a SMILES comes first, the peptide text is derived from it. Bridges are numbered along the chain shown (N, C = ends). [ ]: non-standard residue; d: D form. The star is where a group is joined. X1 = CC[C@H](C)CCCCC(=O)*; Dab = NCC[C@H](N)C(=O)O
reported.metric: half-life (h)

• CC[C@H](C)CCCCC(=O)N[C@@H](CCN)C(=O)N[C@H](C(=O)N[C@@H](CCN)C(=O)N[C@H]1CCNC(=O)[C@H]([C@@H](C)O)NC(=O)[C@H](CCN)NC(=O)[C@H](CCN)NC(=O)[C@H](CC(C)C)NC(=O)[C@@H](Cc2ccccc2)NC(=O)[C@H](CCN)NC1=O)[C@@H](C)O [polymyxin B] (X1-[Dab]T[Dab][Dab][Dab][dF]L[Dab][Dab]T; lactam 4-C) = 11.2

* * *

experiment: Steady-state plasma pharmacokinetics of intravenous polymyxin B in critically ill patients (non-compartmental analysis); type: in vivo, human; conditions: human, iv, young group <65 years (n = 6), iv 1.25–1.5 mg/kg q12h, steady state, HPLC-MS/MS, mean ± SD, SD, read-out: Cmax
Where a SMILES comes first, the peptide text is derived from it. Bridges are numbered along the chain shown (N, C = ends). [ ]: non-standard residue; d: D form. The star is where a group is joined. X1 = CC[C@H](C)CCCCC(=O)*; Dab = NCC[C@H](N)C(=O)O
reported.metric: Cmax

- CC[C@H](C)CCCCC(=O)N[C@@H](CCN)C(=O)N[C@H](C(=O)N[C@@H](CCN)C(=O)N[C@H]1CCNC(=O)[C@H]([C@@H](C)O)NC(=O)[C@H](CCN)NC(=O)[C@H](CCN)NC(=O)[C@H](CC(C)C)NC(=O)[C@@H](Cc2ccccc2)NC(=O)[C@H](CCN)NC1=O)[C@@H](C)O [polymyxin B] (X1-[Dab]T[Dab][Dab][Dab][dF]L[Dab][Dab]T; lactam 4-C): 9.89 µg/mL

* * *

test: Steady-state plasma pharmacokinetics of intravenous polymyxin B in critically ill patients (non-compartmental analysis); type: in vivo, human; conditions: human, iv, all patients (n = 23), per total body weight, iv, steady state, non-compartmental, mean ± SD, SD, read-out: Volume of distribution per TBW
Where a SMILES comes first, the peptide text is derived from it. Bridges are numbered along the chain shown (N, C = ends). [ ]: non-standard residue; d: D form. The star is where a group is joined. X1 = CC[C@H](C)CCCCC(=O)*; Dab = NCC[C@H](N)C(=O)O
reported.metric: Vd (L/kg)

* CC[C@H](C)CCCCC(=O)N[C@@H](CCN)C(=O)N[C@H](C(=O)N[C@@H](CCN)C(=O)N[C@H]1CCNC(=O)[C@H]([C@@H](C)O)NC(=O)[C@H](CCN)NC(=O)[C@H](CCN)NC(=O)[C@H](CC(C)C)NC(=O)[C@@H](Cc2ccccc2)NC(=O)[C@H](CCN)NC1=O)[C@@H](C)O [polymyxin B] (X1-[Dab]T[Dab][Dab][Dab][dF]L[Dab][Dab]T; lactam 4-C) | 0.37

* * *

test: Steady-state plasma pharmacokinetics of intravenous polymyxin B in critically ill patients (non-compartmental analysis); assay type: in vivo, human; conditions: human, iv, all patients (n = 23), iv infusion of at least 1 h, steady state, mean ± SD, SD
Where a SMILES comes first, the peptide text is derived from it. Bridges are numbered along the chain shown (N, C = ends). [ ]: non-standard residue; d: D form. The star is where a group is joined. X1 = CC[C@H](C)CCCCC(=O)*; Dab = NCC[C@H](N)C(=O)O
reported.metric: Tmax (min)

* CC[C@H](C)CCCCC(=O)N[C@@H](CCN)C(=O)N[C@H](C(=O)N[C@@H](CCN)C(=O)N[C@H]1CCNC(=O)[C@H]([C@@H](C)O)NC(=O)[C@H](CCN)NC(=O)[C@H](CCN)NC(=O)[C@H](CC(C)C)NC(=O)[C@@H](Cc2ccccc2)NC(=O)[C@H](CCN)NC1=O)[C@@H](C)O [polymyxin B] (X1-[Dab]T[Dab][Dab][Dab][dF]L[Dab][Dab]T; lactam 4-C) | 54.6

* * *

assay: Steady-state plasma pharmacokinetics of intravenous polymyxin B in critically ill patients (non-compartmental analysis); assay type: in vivo, human; details: human, iv, all patients (n = 23), iv 1.25–1.5 mg/kg q12h, steady state, HPLC-MS/MS, mean ± SD, SD, read-out: Cmax
Where a SMILES comes first, the peptide text is derived from it. Bridges are numbered along the chain shown (N, C = ends). [ ]: non-standard residue; d: D form. The star is where a group is joined. X1 = CC[C@H](C)CCCCC(=O)*; Dab = NCC[C@H](N)C(=O)O
reported.metric: Cmax (ng/mL)

* CC[C@H](C)CCCCC(=O)N[C@@H](CCN)C(=O)N[C@H](C(=O)N[C@@H](CCN)C(=O)N[C@H]1CCNC(=O)[C@H]([C@@H](C)O)NC(=O)[C@H](CCN)NC(=O)[C@H](CCN)NC(=O)[C@H](CC(C)C)NC(=O)[C@@H](Cc2ccccc2)NC(=O)[C@H](CCN)NC1=O)[C@@H](C)O [polymyxin B] (X1-[Dab]T[Dab][Dab][Dab][dF]L[Dab][Dab]T; lactam 4-C) | 9410

* * *

Test: Steady-state plasma pharmacokinetics of intravenous polymyxin B in critically ill patients (non-compartmental analysis)
Assay type: in vivo, human
Details: human, iv, young group <65 years (n = 6), iv 1.25–1.5 mg/kg q12h, steady state, HPLC-MS/MS, non-compartmental, mean ± SD, SD, read-out: AUCss, 0–24 h
Description: All adult patients admitted to the participating intensive care unit (ICU) in a teaching hospital between December 2021 and July 2023 were consecutively screened for entry into this prospective observational study. […] For steady-state PK assessment, blood samples were obtained after at least six doses of PMB. […] The PMB plasma concentrations were quantified by measuring both polymyxin B1 and B2 using validated high-performance liquid chromatography-tandem mass spectrometry. […]
Where a SMILES comes first, the peptide text is derived from it. Bridges are numbered along the chain shown (N, C = ends). [ ]: non-standard residue; d: D form. The star is where a group is joined. X1 = CC[C@H](C)CCCCC(=O)*; Dab = NCC[C@H](N)C(=O)O
reported.metric: AUC(0-t) (ng·h/mL)

• CC[C@H](C)CCCCC(=O)N[C@@H](CCN)C(=O)N[C@H](C(=O)N[C@@H](CCN)C(=O)N[C@H]1CCNC(=O)[C@H]([C@@H](C)O)NC(=O)[C@H](CCN)NC(=O)[C@H](CCN)NC(=O)[C@H](CC(C)C)NC(=O)[C@@H](Cc2ccccc2)NC(=O)[C@H](CCN)NC1=O)[C@@H](C)O [polymyxin B] (X1-[Dab]T[Dab][Dab][Dab][dF]L[Dab][Dab]T; lactam 4-C) = 59500

* * *

test: Steady-state plasma pharmacokinetics of intravenous polymyxin B in critically ill patients (non-compartmental analysis); type: in vivo, human; conditions: human, iv, young group <65 years (n = 6), iv, steady state, non-compartmental, mean ± SD, SD, read-out: Half-time time (converted)
Where a SMILES comes first, the peptide text is derived from it. Bridges are numbered along the chain shown (N, C = ends). [ ]: non-standard residue; d: D form. The star is where a group is joined. X1 = CC[C@H](C)CCCCC(=O)*; Dab = NCC[C@H](N)C(=O)O
reported.metric: half-life (h)

• CC[C@H](C)CCCCC(=O)N[C@@H](CCN)C(=O)N[C@H](C(=O)N[C@@H](CCN)C(=O)N[C@H]1CCNC(=O)[C@H]([C@@H](C)O)NC(=O)[C@H](CCN)NC(=O)[C@H](CCN)NC(=O)[C@H](CC(C)C)NC(=O)[C@@H](Cc2ccccc2)NC(=O)[C@H](CCN)NC1=O)[C@@H](C)O [polymyxin B] (X1-[Dab]T[Dab][Dab][Dab][dF]L[Dab][Dab]T; lactam 4-C) = 6.56
